B1: SPOPL (parent)
chain: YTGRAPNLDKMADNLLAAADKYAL

Variants of: B1
Test: protein stability index of a GFP-peptide fusion (GPS, HEK-293T) (PSI 1-6); higher = more stable;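 note: lentivirally expressed fusions sorted by FACS into six bins by GFP to DsRed ratio, PSI derived from sequencing read proportions per bin multiplied by bin number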
Conditions: c terminus: a fixed tail appended
Param threshold (2) applies to protein stability index; output Yes when value >= threshold, No when value < threshold.

Here's what some known entries look like.
| variant.annotation | class.assignment |
| --- | --- |
| G3H | Yes |
| L15K | Yes |

Consider now this further variant.
Query: Decide: is the reported value of protein stability index for `A19F` equal to or greater than 2?
Reply: No
